Target: UniProtKB Q17339
Sequence (Q17339 whole entry, looked up): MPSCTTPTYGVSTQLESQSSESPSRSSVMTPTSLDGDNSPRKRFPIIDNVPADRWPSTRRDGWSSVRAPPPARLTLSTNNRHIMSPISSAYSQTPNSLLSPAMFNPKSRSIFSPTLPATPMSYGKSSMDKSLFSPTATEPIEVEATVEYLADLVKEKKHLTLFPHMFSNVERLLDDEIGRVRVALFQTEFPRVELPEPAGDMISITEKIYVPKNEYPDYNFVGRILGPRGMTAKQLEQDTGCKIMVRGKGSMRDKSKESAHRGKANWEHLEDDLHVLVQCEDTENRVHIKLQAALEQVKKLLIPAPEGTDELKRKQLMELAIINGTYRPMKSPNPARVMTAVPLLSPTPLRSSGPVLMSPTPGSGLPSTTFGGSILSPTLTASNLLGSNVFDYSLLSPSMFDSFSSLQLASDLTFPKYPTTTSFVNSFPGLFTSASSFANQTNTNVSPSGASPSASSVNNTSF
Assay: C. elegans gld-1 RNA interaction inhibition curves – biochemical, fluorescence polarization, IC50, powder samples, late-stage follow-up (AID 488797)
Details: GLD-1 / FL-TGE RNA binding
Active and inactive are the calls of the source.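 Rule for the calls: active = half-inhibiting concentration IC50 at or below 10 µM; inactive = IC50 above 10 µM.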
Outcomes: label 1 (active), label 0 (inactive)

INSERT INTO measurements (sample_smiles, assigned_class) VALUES
  ('O=C1C2=C(SCCS2)C(=O)N1CCCO', 'label 1'),
  ('COc1ccc(C=Nc2c(-c3ccco3)nc3ccccn23)cc1OC', 'label 0'),
  ('Nc1ccc2nonc2c1[N+](=O)[O-]', 'label 0'),
  ('Nc1c(O)ccc2c1C(=O)c1ccccc1C2=O', 'label 1'),
  ('CCOC(=O)c1c(C)oc2c1cc(NS(=O)(=O)c1ccc(C)cc1)c1ccccc12', 'label 0'),
  ('Nc1ccc(O)c2c1C(=O)c1ccccc1C2=O', 'label 1'),
  ('Cc1ccc(S(=O)(=O)Nc2cc3c(C(=O)Nc4ccccc4)c(C)oc3c3ccccc23)cc1', 'label 1'),
  ('O=c1[nH]c(=O)c2nc3ccccc3nc2[nH]1', 'label 0'),
  ('O=c1[nH]c2cc3ccccc3cc2nc1C(F)(F)F', 'label 1'),
  ('CCN(CC)S(=O)(=O)c1ccc(N2CCCC2)c(NS(=O)(=O)c2ccc(F)cc2)c1', 'label 0'),
  ('O=C(CN1C(=O)NC2(CCCCC2)C1=O)Oc1ccc2c(C(F)(F)F)cc(=O)oc2c1', 'label 1'),
  ('CCCCn1c(=O)[nH]c2nc3cc(NC(C)=O)ccc3nc2c1=O', 'label 1'),
  ('CC1=CC(=O)c2c(O)ccc(O)c2C1=O', 'label 1'),
  ('COc1ccc(/C=C(\CC(=O)O)c2nc3ccccc3s2)cc1O', 'label 1'),
  ('Cc1ccc(S(=O)(=O)Nc2cc3c(C(=O)Nc4ccccc4)c(C)oc3c3ccccc23)c(C)c1', 'label 1');
